Ok so here's the combined literature set: log10 of IC50 for Tyrosine-protein phosphatase non-receptor type 1 (Homo sapiens).
Please interpret these as log10 of IC50 where IC50 is in µM.

[Q] Which log10 of IC50 value belongs to `C#Cc1cc2nsnc2cc1N` ?
[A] 1.70

[Q] Now the same for `O=C(O)C(=O)c1ccc(OCc2ccccc2COc2ccc(C(=O)C(=O)O)cc2)cc1`
[A] 1.28

[Q] Proceed to `CCOC(=O)/C(C)=C/C(C)=C/c1csc([C@H](Cc2ccc(OCc3ccccc3)cc2)NC(=O)C2CCCCC2)n1`
[A] 1.28

[Q] Again, but for `NS(=O)(=O)C(F)(F)c1cc(-c2ccc(CSCc3ccc(C(F)(F)P(=O)(O)O)c(Br)c3)cc2)ccc1Br`
[A] -1.52

[Q] Do the same for O=C(/C=C/c1ccc(F)cc1)NC(Cc1ccc2cc(OCc3ccccc3F)ccc2c1)C(=O)O (racemic) please
[A] 0.53

[Q] Okay, and `COC(=O)c1cc(Cn2cc(C(=O)O)c(=O)c3cc(I)ccc32)ccc1O` ?
[A] 1.23

[Q] How about `Oc1cc(-c2ncc(-c3ccc(Oc4ccccc4)cc3)o2)cc(Br)c1O` ?
[A] 0.52

[Q] Repeat for the following molecule: `Oc1cc(-c2ncc(-c3ccc(Oc4ccccc4)cc3)o2)c(Br)c(Br)c1O`
[A] 0.30

[Q] Param item: `CC(C)(C)OC(=O)N1Cc2cc(NS(=O)(=O)O)ccc2C[C@H]1C(=O)NCCc1ccccc1`
[A] 1.71

----------
Please find below IC50 measurements for Tyrosine-protein phosphatase non-receptor type 1 (Homo sapiens, UniProt P18031), combined from several publications.
Just the number please, in µM, no unit attached.

[Q] Item under review: `O=P(O)(O)C(F)(F)c1ccc(COCCOCc2ccc(C(F)(F)P(=O)(O)O)cc2)cc1` . Reported IC50?
[A] 3.9

[Q] Entry to check: `C=CCCC(=O)N1Cc2cc(OCCc3nc(/C=C/CCC(C)C)oc3C)ccc2C[C@H]1C(=O)O.CC(C)(C)N`
[A] 1.69

[Q] And the next one, `O=C(Nc1ccc(F)cc1)c1ccc(-c2ccc(C(=O)Nc3ccc(F)cc3)[nH]2)cc1` ?
[A] 28.3

[Q] Now the compound `CC(=O)O[C@@H]1c2c3c(cc(O)c2C(=O)O[C@@H]1C)O[C@@]1(C)[C@@H](O)C[C@H]2C(C)(C)[C@@H](O)C=C[C@]2(C)[C@@H]1C3`
[A] 62.5

[Q] How about this compound: `NC(=O)COc1cccc(/C=C2\SC(=S)N(CC(=O)O)C2=O)c1`
[A] 716

[Q] Quick one: `O=C(Nc1ccccc1)c1ccc(-c2ccc(C(=O)Nc3ccccc3)s2)cc1`
[A] 3.52

[Q] And then `CO[C@@]12c3c(C)cc(O)c4c(=O)n(-c5ccc([N+](=O)[O-])cc5)cc(c34)C(=O)[C@@H]1[C@]13COC(=O)c4c(O)cc(C)c(c41)C(=O)[C@H]2[C@@H]3OC(C)=O` , what is it?
[A] 7.7

[Q] Another compound: `O=C(O)CCCCN1C(=O)/C(=C/c2cn(-c3ccccc3)nc2-c2ccc(Cl)cc2)SC1=S`
[A] 2.2

----------
pIC50 values for UniProt:P18031, compiled from several publications.
- TARGET OF ASSAY: UniProt:P18031
- Sequence (P18031 whole entry): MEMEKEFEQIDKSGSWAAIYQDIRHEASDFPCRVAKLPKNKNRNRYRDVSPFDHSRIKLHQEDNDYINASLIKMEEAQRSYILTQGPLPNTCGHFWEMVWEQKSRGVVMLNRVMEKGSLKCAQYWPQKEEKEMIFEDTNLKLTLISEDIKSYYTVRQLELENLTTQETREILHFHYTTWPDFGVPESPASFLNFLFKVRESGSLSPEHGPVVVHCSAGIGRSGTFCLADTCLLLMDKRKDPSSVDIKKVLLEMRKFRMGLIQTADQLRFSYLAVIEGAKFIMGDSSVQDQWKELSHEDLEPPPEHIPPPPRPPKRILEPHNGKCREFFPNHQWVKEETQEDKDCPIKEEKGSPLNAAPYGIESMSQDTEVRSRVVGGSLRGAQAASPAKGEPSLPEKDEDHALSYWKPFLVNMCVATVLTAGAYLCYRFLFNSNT
For clarity, pIC50 is expressed as the negative log10 of concentration in mol/L.

[Q] # get_value(readout= pIC50, system= UniProt:P18031) for `NC(=O)[C@H](Cc1ccc(C2=CC(=O)NS2(=O)=O)cc1)NC(=O)[C@H](Cc1ccccc1)NC(=O)CCc1ccccc1`
[A] 5.57

[Q] Follow-up item: `NS(=O)(=O)C(F)(F)c1cc(-c2ccc(CSCc3ccc(C(F)(F)S(=O)(=O)O)c(Br)c3)cc2)ccc1Br`
[A] 5.22

[Q] Same thing, different molecule: O=C1CN(c2c(O)cc3ccc(C4CCN(S(=O)(=O)C5CC5)C4)cc3c2F)S(=O)(=O)N1 (stereo unspecified)
[A] 9.00

[Q] // query: `O=C(O)c1cccc(NC(=O)c2csc([C@H](Cc3ccc(OCc4ccccc4)cc3)NC(=O)C3CCCCC3)n2)c1`
[A] 5.22

[Q] Another: `CCCCCCc1ccc(NC(=O)C(=O)N2C[C@H](Oc3ccc(CCS(=O)(=O)OCC)cc3)[C@H](Oc3ccc(/C=C/S(=O)(=O)OCC)cc3)C2)cc1`
[A] 5.81

[Q] Would you kindly repeat that for `C[C@@H]1Cc2c3c(c(Cl)c(O)c2C(=O)O1)O[C@@]1(C)[C@@H](O)C[C@H]2C(C)(C)C(=O)C(Cl)(Cl)C[C@]2(C)[C@@H]1C3` ?
[A] 4.15

[Q] What about this molecule? NC(=O)[C@@H](N)Cc1ccc(C2CC(=O)NS2(=O)=O)cc1 (stereo partly specified)
[A] 4.00

[Q] Repeat for the following molecule: `C[C@H]1[C@H](C)CC[C@]2(C)CC[C@]3(C)C(=CC(=O)[C@@H]4[C@@]5(C)CC[C@@H](O)[C@](C)(C(=O)O)[C@@H]5CC[C@]43C)[C@H]12`
[A] 5.09

[Q] Same question, `O=C(O)c1cc(/C=C/c2ccccc2)cc(-c2ccccc2)c1O` this time
[A] 4.89

[Q] Same question for COc1ccc(/C=C/C(=O)NC(Cc2ccc3cc(OCc4ccccc4F)ccc3c2)C(=O)O)cc1OC (racemic) please.
[A] 5.35

[Q] Next entry: `O=C(O)COc1ccc(S(=O)(=O)N(Cc2ccc(C(F)(F)P(=O)(O)O)cc2)c2ccc(-c3csnn3)cc2)cc1`
[A] 6.66

[Q] Now give it for `CC(=O)N(c1ccc2oc3c(c2c1)CCCC3)S(=O)(=O)c1ccc(C(=O)O)cc1` too.
[A] 3.92

----------
- TARGET OF ASSAY: Tyrosine-protein phosphatase non-receptor type 1 (Homo sapiens)
- Sequence (P18031 whole entry): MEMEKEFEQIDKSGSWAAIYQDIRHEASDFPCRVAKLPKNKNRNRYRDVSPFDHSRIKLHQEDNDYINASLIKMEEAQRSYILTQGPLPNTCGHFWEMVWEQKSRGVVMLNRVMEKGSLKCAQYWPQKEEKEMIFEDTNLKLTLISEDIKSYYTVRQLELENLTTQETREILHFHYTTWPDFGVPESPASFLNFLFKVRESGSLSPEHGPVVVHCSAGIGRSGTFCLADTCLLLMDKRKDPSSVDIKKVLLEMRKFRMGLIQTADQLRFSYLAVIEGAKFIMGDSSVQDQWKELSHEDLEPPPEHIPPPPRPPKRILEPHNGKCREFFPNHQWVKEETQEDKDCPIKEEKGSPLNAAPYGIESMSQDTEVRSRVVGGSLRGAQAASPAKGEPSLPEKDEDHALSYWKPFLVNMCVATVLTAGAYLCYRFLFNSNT
// molecules with log10(IC50) on Tyrosine-protein phosphatase non-receptor type 1 (Homo sapiens), multi-source literature
Kindly note that the scale is log10 and the underlying IC50 is in µM.

[Q] Query (molecule): `CCOc1ccc(Oc2ccc(-c3cnc(-c4cc(O)c(O)c(Br)c4)o3)cc2)cc1` ; field requested: log10(IC50)
[A] -0.55

[Q] Repeat for the following molecule: `CC1(C)CC[C@]2(C(=O)O)CC[C@]3(C)C(=CC[C@@H]4[C@@]5(C)CC[C@H](OCc6ccccc6C(=O)O)C(C)(C)[C@@H]5CC[C@]43C)[C@@H]2C1`
[A] 0.43

[Q] Query `O=C(O)c1ccc(CN2C(=O)/C(=C/c3cccc(OCc4ccccc4)c3)S/C2=N\c2ccccc2)cc1` next
[A] 0.58

[Q] Try `O=C1NC(=O)/C(=C/c2cc(F)ccc2OCc2ccc(C(F)(F)F)cc2)S1` next.
[A] 1.18

[Q] Repeat for the following molecule: `CNC(=O)[C@]12CCC(C)(C)C[C@H]1C1=CC[C@@H]3[C@@]4(C)CC[C@H](O)C(C)(C)[C@@H]4CC[C@@]3(C)[C@]1(C)CC2`
[A] 0.96

[Q] Try `O=C(O)c1cccc(/C=C/c2ccc(Oc3cnoc3-c3ccc(Cl)c(Cl)c3)cc2)c1` next.
[A] -0.04

[Q] Please give the result for `Cc1ccccc1C(=O)Nc1nnc(-c2ccc(Oc3ccc([N+](=O)[O-])cc3[N+](=O)[O-])cc2)s1` too.
[A] 0.93

[Q] Now this one: CC1=CC[C@H]2C(C)(C)CCC[C@]2(C)[C@H]1CC(CCc1ccccc1)OS(=O)(=O)O (stereo in doubt; 15)
[A] 1.61

[Q] And what about the molecule `CC1(C)CC[C@]2(C(=O)O)CC[C@]3(C)C(=CC[C@@H]4[C@@]5(C)CCCC(C)(C)[C@@H]5CC[C@]43C)[C@@H]2C1` ?
[A] 0.42

[Q] Ok, now `COc1cc2nccc3c4ccccc4n(c1=O)c23`
[A] 1.31

[Q] Also check O=C(O)COc1ccc(S(=O)(=O)N(Cc2ccc(-c3csnn3)cc2)Cc2ccc(C3CC(=O)NS3(=O)=O)cc2)cc1 (stereo unspecified)
[A] -0.30

[Q] And `C/C(=C/C(C)=C/c1csc([C@H](Cc2ccc(OCc3ccccc3)cc2)NC(=O)[C@H](Cc2c[nH]c3ccccc23)NC(=O)OC(C)(C)C)n1)C(=O)OCC(=O)O` ?
[A] 0.20

[Q] Consider next the molecule `CC(=O)O[C@H]1[C@@H]2C(=O)c3c(C)cc(O)c4c3[C@@]1(COC4=O)C1=C2c2c(C)cc(O)c3c(=O)n(-c4ccc(I)cc4)cc(c23)C1=O` in the same way.
[A] 1.11
